MEASURED TARGET: DNA Seq12 TGAAAGAAGGT
PROCEDURE DETAILS: FP binding assay, DNA Seq12
EXPERIMENTAL SETUP: Seq 12 TGAAAGAAGGT; 0.5 μM SMN-C2
OUTCOME MEASURE: pKd
# log scale: pKd equals minus log10 of the concentration in mol/L

Challenge: Entry CCN1CCN(c2ccc3cc(-c4cn5cc(C)nc(C)c5n4)c(=O)oc3c2)C[C@@H]1C [SMN-C2] : reported pKd = ?
Response given: 4.75

----------
pKd values by entry
MEASURED TARGET: COVID RNA (SARS-CoV-2 RNA SL5 per FIG. 8)
PROCEDURE DETAILS: FP binding, Kd for COVID RNA
EXPERIMENTAL SETUP: Table 4
pKd (log units): -log10 of the concentration in mol/L.

Field: example entries. Status: answers known.
* O=c1oc2cc(N3CCNCC3)ccc2cc1-c1cn2ccc(C(F)(F)F)cc2n1 [Compound C36] | 5.86
* Cc1cn2cc(-c3cc4ccc(N5CCN(CCOCCN=[N+]=[N-])[C@@H](C)C5)cc4oc3=O)nc2c(C)n1 [Compound C12] | 5.59
* O=c1oc2cc(N3CCNCC3)ccc2cc1-c1cn2ccccc2n1 [Compound C29] | 6.34

Challenge: Which pKd is listed for Cc1cn2cc(-c3cc4ccc(N5CCN(CCNC(=O)OC(C)(C)C)[C@@H](C)C5)cc4oc3=O)nc2c(C)n1 [Compound C6] ?
Response given: 5.52

----------
MEASURED TARGET: DNA Seq16 TGAAGGAAAGT
PROCEDURE DETAILS: FP binding assay, DNA Seq16
EXPERIMENTAL SETUP: Seq 16 TGAAGGAAAGT; 0.5 μM SMN-C2
OUTCOME MEASURE: pKd
Remember, pKd is on a log scale: it is -log10 of the molar concentration.

Challenge: Find the recorded pKd belonging to CCN1CCN(c2ccc3cc(-c4cn5cc(C)nc(C)c5n4)c(=O)oc3c2)C[C@@H]1C [SMN-C2] and report it.
Response given: 4.56

----------
MEASURED TARGET: RNA Seq6 UGAAGGAAGGU
PROCEDURE DETAILS: Fluorescence polarization (FP) binding assay, RNA Seq6
EXPERIMENTAL SETUP: footnote d: FP assay for RNA Seq6; read-out: Kd
OUTCOME MEASURE: Kd (µM)
Give just the number in µM; leave the unit off.

Challenge: Reported Kd for RNA Seq6 UGAAGGAAGGU, given Cc1cn2cc(-c3cc4ccc(N5CCN(CCNC(=O)OC(C)(C)C)[C@@H](C)C5)cc4oc3=O)nc2c(C)n1 [Compound C6] ?
Response given: 51.2

----------
MEASURED TARGET: DNA Seq17 TGAAGGAAGAT
PROCEDURE DETAILS: FP binding assay, DNA Seq17
EXPERIMENTAL SETUP: Seq 17 TGAAGGAAGAT; 0.5 μM SMN-C2
OUTCOME MEASURE: pKd
Schema: pKd number; meaning minus log10 of the concentration expressed in molar units.

Challenge: Endpoint output: pKd of "CCN1CCN(c2ccc3cc(-c4cn5cc(C)nc(C)c5n4)c(=O)oc3c2)C[C@@H]1C" . Value?
Response given: 4.25

----------
MEASURED TARGET: DNA S21 […]
PROCEDURE DETAILS: FP binding assay, 18-nt DNA S21
OUTCOME MEASURE: Kd

Challenge: Lab request: please report Kd under test system DNA S21 […] for "CCN1CCN(c2ccc3cc(-c4cn5cc(C)nc(C)c5n4)c(=O)oc3c2)C[C@@H]1C"
Response given: > 50 µM

----------
MEASURED TARGET: DNA S1 […]
PROCEDURE DETAILS: FP binding assay, 18-nt DNA S1
EXPERIMENTAL SETUP: range = 95% CI
OUTCOME MEASURE: Kd (µM)
Field: numeric (µM). Do not append units.

Challenge: Requested read-out: Kd. Entry: "CCN1CCN(c2ccc3cc(-c4cn5cc(C)nc(C)c5n4)c(=O)oc3c2)C[C@@H]1C"
Response given: 15.3

----------
MEASURED TARGET: DNA Seq6 (UGAAGGAAGGU as deoxyribonucleotides)
PROCEDURE DETAILS: FP binding assay, DNA Seq6
EXPERIMENTAL SETUP: footnote c: FP assay for DNA Seq6; range = 95% CI; read-out: Kd
OUTCOME MEASURE: Kd (µM)
Field: numeric (µM). Do not append units.

Guide cases for Kd, answers given:
- CN1CCN(c2cc(F)c3cc(-c4ccc(Cl)cc4)c(=O)oc3c2)CC1: 9.9
- CN1CCN(c2cc(F)c3cc(-c4cccc(Cl)c4)c(=O)oc3c2)CC1: 18.7
- CN1CCN(c2ccc3cc(-c4ccc(Cl)cc4)c(=O)oc3c2)CC1: 8.2

Challenge: Request the reported Kd associated with "Cc1cn2cc(-c3cc4ccc(N5CCN(CCNC(=O)OC(C)(C)C)[C@@H](C)C5)cc4oc3=O)nc2c(C)n1"
Response given: 4

Challenge: Sample "O=c1oc2cc(N3CCNCC3)ccc2cc1-c1cn2ccccc2n1" — what was its Kd?
Response given: 2.8

----------
Property: pKd; scope: individual compounds
MEASURED TARGET: COVID RNA (SARS-CoV-2 RNA SL5 per FIG. 8)
PROCEDURE DETAILS: FP binding, Kd for COVID RNA
EXPERIMENTAL SETUP: Table 4
API: returns pKd as number; meaning -log10 of concentration in mol/L.

Challenge: For the compound shown here, "O=c1oc2cc(N3CCNCC3)ccc2cc1-c1cn2cc(F)ccc2n1" , give the reported pKd.
Response given: 6.17

Challenge: Any idea what its pKd is? The compound is "O=c1oc2cc(N3CCNCC3)ccc2cc1-c1cn2ccc(Cl)cc2n1"
Response given: 6.40

Challenge: // returns reported pKd for input "O=c1oc2cc(N3CCNCC3)ccc2cc1-c1cn2ccc(F)cc2n1"
Response given: 6.68

Challenge: Requested read-out: pKd. Entry: Cc1cn2cc(-c3cc4ccc(N5CCN[C@@H](C)C5)cc4oc3=O)nc2c(C)n1 [Compound C4, reference compound]
Response given: 5.89

Challenge: Consider the compound shown here: "COc1cn2cc(-c3cc4ccc(N5CCNCC5)cc4oc3=O)nc2cn1" What is its recorded pKd?
Response given: 6.33

----------
MEASURED TARGET: RNA Seq10 UAAAGGAAGGU
PROCEDURE DETAILS: FP binding assay, RNA Seq10
EXPERIMENTAL SETUP: Seq 10 UAAAGGAAGGU; 0.5 μM SMN-C2
pKd: −log10 of the molar value.
OUTCOME MEASURE: pKd

Challenge: Value lookup for pKd; key = CCN1CCN(c2ccc3cc(-c4cn5cc(C)nc(C)c5n4)c(=O)oc3c2)C[C@@H]1C [SMN-C2]
Response given: < 4.00

----------
PROCEDURE DETAILS: in vitro
EXPERIMENTAL SETUP: human
CC50 for assorted compounds

Here is how some compounds turned out for CC50.
- Cc1cn2cc(-c3cc4ccc(N5CCN[C@@H](C)C5)cc4oc3=O)nc2c(C)n1 [Compound C4, reference compound]: > 13 µM
- CN1CCN(c2ccc3cc(-c4cccc(Cl)c4)c(=O)oc3c2)CC1 [Compound C19]: > 30 µM
- Cc1c(-c2cccc(Cl)c2)c(=O)oc2cc(N3CCN(C)CC3)ccc12 [Compound C22]: > 30 µM

Challenge: Which CC50 value belongs to CN1CCN(c2cc(F)c3cc(-c4ccc(Cl)cc4)c(=O)oc3c2)CC1 [Compound C26] ?
Response given: > 30 µM

Challenge: Would you kindly share the measured CC50 for CCN1CCN(c2ccc3cc(-c4cn5cc(C)nc(C)c5n4)c(=O)oc3c2)C[C@@H]1C [SMN-C2] ?
Response given: > 30 µM

----------
# maps each entry to its Kd
MEASURED TARGET: DNA Seq6 (UGAAGGAAGGU as deoxyribonucleotides)
PROCEDURE DETAILS: FP binding assay, DNA Seq6
EXPERIMENTAL SETUP: footnote c: FP assay for DNA Seq6; range = 95% CI; read-out: Kd

• Cc1c(-c2ccc(Cl)cc2)c(=O)oc2cc(N3CCN(C)CC3)ccc12 = > 100 µM
• Cc1cn2cc(-c3cc4ccc(N5CCN[C@@H](C)C5)cc4oc3=O)nc2c(C)n1 [Compound C4, reference compound] = 2.9 µM

Challenge: Which Kd reading was recorded for the molecule "CN1CCN(c2ccc3cc(-c4ccccc4Cl)c(=O)oc3c2)CC1" ?
Response given: > 100 µM

Challenge: Would you kindly share the measured Kd for "CN1CCN(c2ccc3cc(-c4cccc(Cl)c4)c(=O)oc3c2)CC1" ?
Response given: 13.9 µM

Challenge: Please look up its Kd: "COc1cn2cc(-c3cc4ccc(N5CCNCC5)cc4oc3=O)nc2cn1"
Response given: 1.4 µM

Challenge: # get_value(readout='Kd', item= "Cc1c(-c2cccc(Cl)c2)c(=O)oc2cc(N3CCN(C)CC3)ccc12" )
Response given: > 100 µM
